A compilation of Ki values for Nitric oxide synthase, inducible (Homo sapiens, UniProt P35228) from the published literature.
measuredQuantity: Ki (nM)

| smilesStructure | measuredQuantity | unitInfo | recordedValue |
| --- | --- | --- | --- |
| CC(=N)NCCC[C@H](N)C(=O)O | Ki | nM | 340 |
| CCSC(=N)Nc1ccncc1 | Ki | nM | 22000 |

I. CCSC(=N)Nc1ccc(Cl)cc1
II. CCSC(=N)Nc1ccccc1
III. CN/N=C(\N)NCCC[C@H](N)C(=O)O
IV. C[C@H]1CC(=N)N[C@@H]2[C@H](Cl)[C@@H]21
Number of compounds to sort: 4. Sort criterion: Ki, ascending. Use the labels to give the requested order.
IV, II, I, III
(IV: 1.86 nM, II: 870 nM, I: 4200 nM, III: 16400 nM)
